Reported TGI values for a set of molecules
Test system: NCI-H460 lung
test details: NCI tumour cell line growth inhibition, 48 h

Consider the reported TGI for these molecules:
1. O=[N+]([O-])c1cc2n[nH]nc2c2nonc12: > 100 µM
2. CC1=CC(c2ccccc2)OP1(=O)c1ccccc1 (stereo not drawn): > 100 µM
3. CCN1CCN(CCOc2ccc(CNc3ccc4nc(CCC5CCCCC5)[nH]c4c3)cc2)CC1: 7.27 µM
4. CCCCCCN(CCCCCC)CCCNc1nccc2ccccc12: 2.88 µM
5. COc1cc(N=C(N)N=C(N)N)c2ncccc2c1: > 100 µM

## Input Query the reported TGI for NCI-H460 lung; item: `C=CCn1c2ccccc2c2c(C)c3cnccc3c(C)c21`
## Output 37.8 µM

## Input API: value(readout= TGI, system= NCI-H460 lung, query= `C/C(=N\NC(=O)CC(=O)Nc1ccc(C)cc1)c1cc2ccccc2oc1=O` )
## Output > 100 µM

## Input What value of TGI on NCI-H460 lung does CC(=O)OC1C=CC2CCN3C(=O)c4cc5c(cc4[C@H]1C23)OCO5 (stereo partly drawn) have?
## Output > 100 µM

## Input Hi! What's the reported TGI for `COc1ccc2c(c1)/C(=C(\C(Cl)=C(\Cl)N1CCCCC1)[N+](=O)[O-])N2` on NCI-H460 lung?
## Output > 100 µM
